biological target: IKBKE (human); test: KINOMEscan competition binding; details: compound 10.0 µM
ENDPOINT: kinase still bound, per cent of control (%)
Give just the number in %; leave the unit off.

Record excerpt, results attached:
COMPOUND	DISPLAY UNIT	kinase still bound, per cent of control
Cc1cn(-c2cc(C(=O)Nc3ccc(C)c(NC(=O)c4ccno4)c3)cc(C(F)(F)F)c2)cn1	%	100
COc1cc(N2CCC(C(N)=O)CC2)ccc1Nc1nc(N)c(Cl)c(Nc2ccccc2S(=O)(=O)C(C)C)n1	%	100
CCOc1cc(N2CCC(O)CC2)ccc1Nc1ncc2c(n1)N(C)c1ccccc1C(=O)N2C	%	100
CNC(=O)Nc1ccc(-c2nc(N3CC4CCC(C3)O4)c3cnn(C4CCC5(CC4)OCCO5)c3n2)cc1	%	100
COc1ccc(N(C(=O)Oc2cc(C(=O)Nc3cccc(C(F)(F)F)c3)ccc2C)c2ccnc(Nc3ccc(N4CCN(C)CC4)cc3)n2)c(OC)c1	%	100
C=CC(=O)Nc1ccc(C(=O)c2sc(Nc3ccc(N4CCN(C)CC4)cc3OC)nc2N)cc1	%	84

Data request, read-out kinase still bound, per cent of control, for COc1cc(C)c(Sc2cnc(NC(=O)c3ccc(CNC(C)C(C)C)cc3)s2)cc1C(=O)N1CCN(C(C)=O)CC1 (stereo not drawn) 100

Quick one: kinase still bound, per cent of control for CCCS(=O)(=O)Nc1ccc(F)c(C(=O)c2c[nH]c3ncc(Cl)cc23)c1F ? 91

----------
target: BMPR1B (human); assay: KINOMEscan competition binding; conditions: compound 10.0 µM
ENDPOINT: kinase still bound, per cent of control (%)
The reply should contain only the number, in %.

API: value(readout= kinase still bound, per cent of control, system= BMPR1B (human), query= CC1=C(C(=O)Nc2cc3cn[nH]c3cc2F)C(c2ccc(C(F)(F)F)cc2)CC(=O)N1 (centres undefined) ) 65

----------
target: MARK1 (human); assay: KINOMEscan competition binding; conditions: compound 10.0 µM
ENDPOINT: kinase still bound, per cent of control

Reference set, count: 3
CCN1CCN(Cc2ccc(NC(=O)c3ccc(C)c(/C=C/c4cnc5[nH]ccc5c4OC)c3)cc2C(F)(F)F)CC1 94%
C=CC(=O)Nc1ccc(C(=O)c2sc(Nc3ccc(N4CCN(C)CC4)cc3OC)nc2N)cc1 93%
Cc1cn(-c2cc(C(=O)Nc3ccc(C)c(NC(=O)c4ccno4)c3)cc(C(F)(F)F)c2)cn1 100%

Form entry - test system: MARK1 (human); read-out: kinase still bound, per cent of control; molecule: CNC(=O)Nc1ccc(-c2nc(N3CC4CCC(C3)O4)c3cnn(C4CCC5(CC4)OCCO5)c3n2)cc1 100%

----------
Here the recorded kinase still bound, per cent of control is given for each entry.
biological target: UniProt P49759; experiment: KINOMEscan competition binding; conditions: compound 10.0 µM
Sequence (P49759 whole entry, looked up): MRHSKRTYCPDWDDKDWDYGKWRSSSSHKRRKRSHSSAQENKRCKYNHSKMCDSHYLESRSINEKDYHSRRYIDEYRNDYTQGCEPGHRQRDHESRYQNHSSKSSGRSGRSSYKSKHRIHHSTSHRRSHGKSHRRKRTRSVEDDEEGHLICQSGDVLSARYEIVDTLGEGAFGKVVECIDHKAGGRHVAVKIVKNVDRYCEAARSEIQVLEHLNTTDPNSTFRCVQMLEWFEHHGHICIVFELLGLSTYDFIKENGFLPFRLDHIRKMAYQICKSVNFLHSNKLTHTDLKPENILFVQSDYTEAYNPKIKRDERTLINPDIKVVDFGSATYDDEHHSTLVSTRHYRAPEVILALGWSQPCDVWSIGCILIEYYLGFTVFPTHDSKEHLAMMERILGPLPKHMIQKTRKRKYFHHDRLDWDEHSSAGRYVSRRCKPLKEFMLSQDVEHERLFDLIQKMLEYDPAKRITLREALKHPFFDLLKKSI
// unit must come after the numeric part

Consider the reported kinase still bound, per cent of control for these compounds:
COMPOUND	kinase still bound, per cent of control
O=c1[nH]c2ccccc2n1C1CCN(Cc2ccc(-c3nc4cc5[nH]cnc5cc4nc3-c3ccccc3)cc2)CC1	100%
N#Cc1cc(-c2ccnc(Nc3ccc(-n4cnc(-c5cccnc5)n4)cc3)n2)cc(N2CCOCC2)c1	2.5%
CCN(CCO)CCCOc1ccc2c(Nc3cc(CC(=O)Nc4cccc(F)c4)[nH]n3)ncnc2c1	69%

Please look at the following compound next.
I have this compound here, CC1=C(C(=O)Nc2cc3cn[nH]c3cc2F)C(c2ccc(C(F)(F)F)cc2)CC(=O)N1 (centres undefined) , and I need its recorded kinase still bound, per cent of control. 72%
